Known Population Mitochondria Different-Phenotype (%) of a selection of compounds
Tested on: U2OS
Assay: Multiplex assay against U2OS
Assay type: toxicity, cell-based
Settings: human, 48 h, 1 µM, compound concentration 1 uM, replicate 2
Report the value in % with no unit label.

> print(dat)
                                   compound  unit.descriptor  quantitative.result
1  COc1ccccc1N1CCN(C[C@@H](C(=O)NC(C)(C)C)c2ccccc2)CC1.Cl.Cl                %                    2

Observed Population Mitochondria Different-Phenotype (%) on U2OS for N#Cc1cc(F)cc(-c2nc(-c3ccc(F)cn3)no2)c1 , please.
3

Observed Population Mitochondria Different-Phenotype (%) on U2OS for CCc1cc2cc(NS(=O)(=O)c3ccc(C#N)cc3)ccc2n(CC)c1=O , please.
5

Observed Population Mitochondria Different-Phenotype (%) on U2OS for CCCCCC(O)/C=C/[C@H]1C(=O)CC(O)C1C/C=C\CCCC(=O)O (some centres undefined) , please.
4

Observed Population Mitochondria Different-Phenotype (%) on U2OS for Cc1noc(-c2ccc(-c3ccc(CC(=O)O)cc3)cc2)c1NC(=O)O[C@H](C)c1ccccc1Cl , please.
4

Observed Population Mitochondria Different-Phenotype (%) on U2OS for CN(C)C(=O)Cn1cc(-c2ccc(-c3cncc4ccccc34)cc2)cn1 , please.
9

Observed Population Mitochondria Different-Phenotype (%) on U2OS for NCCc1cn(S(=O)(=O)c2c(Cl)nc3sccn23)c2ccccc12.O=C(O)C(=O)O , please.
7

Observed Population Mitochondria Different-Phenotype (%) on U2OS for CC(C)c1noc(N2CCC(COc3ccc(-c4ccc(S(C)(=O)=O)cc4)nc3)CC2)n1 [GSK-1292263] , please.
2

Observed Population Mitochondria Different-Phenotype (%) on U2OS for Cc1c(CC(=O)O)c2cccnc2n1Cc1ccc(S(C)(=O)=O)cc1C(F)(F)F [FEVIPIPRANT] , please.
5

Origin of values: ChEMBL document CHEMBL5058577
